readout.kind: melting point

compound="CC1COC(Cn2ncnc2S)(c2ccc(Oc3ccccc3)c(F)c2)O1 (stereo not drawn) [Example 67]" value_observed="62 to 64 °C"
compound="CC1COC(Cn2cncn2)(c2ccc(Oc3ccc(F)cc3F)cc2)O1 (stereo not drawn) [Example 4]" value_observed="83 to 86 °C"
compound="CCC1COC(Cn2cncn2)(c2ccc(Oc3ccc(F)cc3F)cc2)O1 (stereo not drawn) [Example 5]" value_observed="112 to 114 °C"
compound="CC1COC(Cn2cncn2)(c2ccc(Oc3ccc(Cl)cc3F)cc2)O1 (stereo not drawn) [Example 3]" value_observed="113 to 115 °C"
compound="CC1COC(Cn2ncnc2S)(c2cc(F)c(Oc3ccccc3)c(F)c2)O1 (stereo not drawn) [Example 68]" value_observed="139 to 141 °C"
compound="CC1COC(Cn2cncn2)(c2cc(F)c(Oc3ccc(Cl)cc3)cc2F)O1 (stereo not drawn) [Example 37]" value_observed="86 to 88 °C"
compound="CCC1COC(Cn2cncn2)(c2ccc(Oc3c(F)cccc3F)cc2)O1 (stereo not drawn) [Example 9]" value_observed="90 to 95 °C"
compound="CC1COC(Cn2cncn2)(c2ccc(Oc3ccccc3)c(F)c2)O1 (stereo not drawn) [Example 35]" value_observed="108 to 110 °C"
compound="CC1COC(Cn2cncn2)(c2ccc(Oc3c(F)cccc3Cl)cc2)O1 (stereo not drawn) [Example 6]" value_observed="112 to 114 °C"

---

Recorded logP by entry
# experiment.summary: Log P, partition coefficient between water and octanol
# Assay type: physicochemical
readout.kind: logP

compound="CC1COC(Cn2cncn2)(c2cc(F)c(Oc3ccccc3)c(F)c2)O1 (centres unmarked) [Example 41]" value_observed=3.7
compound="CCCC1COC(Cn2cncn2)(c2ccc(Oc3ccc(Cl)cc3)cc2Cl)O1 (centres unmarked) [Example 39]" value_observed=5.4
compound="CC1COC(Cn2ncnc2S)(c2ccc(Oc3ccc(Cl)cc3)c(F)c2)O1 (centres unmarked) [Example 69]" value_observed=3.6
compound="CC1COC(Cn2ncnc2S)(c2cc(F)c(Oc3ccccc3)cc2F)O1 (centres unmarked) [Example 64]" value_observed=2.9
compound="CC1COC(Cn2cncn2)(c2ccc(Oc3ccc(Cl)cc3)c(F)c2)O1 (centres unmarked) [Example 32]" value_observed=4.2
compound="CC1COC(Cn2ncnc2S)(c2ccc(Oc3ccc(Cl)cc3)cc2F)O1 (centres unmarked) [Example 70]" value_observed=3.5
compound="CC1COC(Cn2ncnc2S)(c2cc(F)c(Oc3ccc(Cl)cc3)cc2F)O1 (centres unmarked) [Example 63]" value_observed=3.2
compound="CCC1COC(Cn2cncn2)(c2ccc(Oc3ccc(Cl)cc3)cc2Cl)O1 (centres unmarked) [Example 38]" value_observed=5

---

readout.kind: melting point

compound="CCCC1COC(Cn2ncnc2S)(c2ccc(Oc3ccc(Cl)cc3)cc2Cl)O1 (stereo not shown) [Example 65]" readout_kind="melting point" value_observed="105 to 106 °C"
compound="CC1COC(Cn2cncn2)(c2ccc(Oc3cc(F)ccc3F)cc2Cl)O1 (stereo not shown) [Example 26]" readout_kind="melting point" value_observed="119.9 °C"
compound="CC1COC(Cn2cncn2)(c2cc(F)c(Oc3ccccc3)cc2F)O1 (stereo not shown) [Example 40]" readout_kind="melting point" value_observed="102 to 104 °C"
compound="COCC1COC(Cn2ncnc2S)(c2ccc(Oc3ccc(Cl)cc3)cc2Cl)O1 (stereo not shown) [Example 66]" readout_kind="melting point" value_observed="153 to 155 °C"
